- System: SK-MEL-5 melanoma
- assayProtocol: NCI tumour cell line growth inhibition, 48 h; in the data active = GI50 below about 0.43 µM; inactive = the rest
Hi! Could you answer with just one of these? active, inactive

What classification did Clc1ccc(-c2c3ccc(=[N+]4CCCCC4)cc-3oc3cc(N4CCCCC4)ccc23)cc1 end up with in this test? active

Lab log entry: CSc1nc2nc3c(nc2c(=O)n1C)C(=O)c1ccccc1C3=O — outcome as called in the assay? active

Lab log entry: COc1cc(C2C3=C(COC3=O)N(CCO)c3cc4c(cc32)OCCO4)cc(OC)c1OC (configuration not stated) — outcome as called in the assay? active

For this compound, state the assay outcome: CC(=O)N1CCN(CCNC(=O)n2cc(-c3ccncc3)c(-c3cc(O)cc(Cl)c3)n2)CC1 inactive

Answer briefly: the call reported for O=C(NNc1ccc(Cl)cc1)C1CCC(CNS(=O)(=O)c2ccccc2Cl)CC1 (configuration not stated) in this assay. inactive

Test call for this compound, please: CC(C)N(Cc1ccc(CN(C(=O)CCl)C(C)C)cc1)C(=O)CCl inactive

Could you kindly confirm the outcome this assay logged for COc1ccc(/C=C/c2c(C(=O)/C=C/c3ccc(C(F)(F)F)cc3)c(C)nc3ccccc23)cc1 ? inactive

Entry CC/C(Cc1ccccc1)=C(\c1ccc(OCCN2CCCC2)cc1)c1ccc(OC(=O)NCc2ccccc2)cc1 : call = ? inactive

Further cases:
Status in this test for COc1ccc(-c2cncn2-c2cc(OC)c(OC)c(OC)c2)cc1 ? active

Please state the recorded outcome for this compound: CS(=O)(=O)c1ccc(Nc2nc(N[C@H]3CCCC[C@H]3N)nc3cc[nH]c(=O)c23)cc1 inactive
